Attribution: ChEMBL document CHEMBL5316338

- System: Mus musculus
- protocolDescription: Antidiabetic activity against C57BL/Ks db/db mouse assessed as redcution in fasting blood glucose level at 1 umol/kg, sc administered once a week and measured on day 28 by glucometer analysis (reference value: 32.4 +/- 1.1 […])
- Format: functional
- conditionDetails: dose 1 µmol/kg, time 28 day
Square brackets hold non-standard residues; d marks the D form. Peptide text beside a SMILES is read from it. * marks the point of attachment. ξ: configuration not given here. C22 diacid = O=C(O)CCCCCCCCCCCCCCCCCCCCC(=O)*; C20 diacid = O=C(O)CCCCCCCCCCCCCCCCCCC(=O)*; C18 diacid = O=C(O)CCCCCCCCCCCCCCCCC(=O)*; Stearoyl = CCCCCCCCCCCCCCCCCC(=O)*; Myristoyl = CCCCCCCCCCCCCC(=O)*; ξR = N=C(N)NCCCC(N)C(=O)O
// Fasting blood glucose level lookup, one value per entry
measurementName: Fasting blood glucose level (mmol/L)

INSERT INTO assay_data (compound, measurementname, recordednumber) VALUES
  ('CC[C@H](C)[C@H](NC(=O)CCCCCCCCCCCCCCCCCCC(=O)O)C(=O)N[C@@H](C)C(=O)N[C@@H](CCC(N)=O)C(=O)N[C@@H](CCC(=O)O)C(=O)N[C@@H](CC(C)C)C(=O)N[C@@H](CCCNC(=N)N)C(=O)NC(CCCNC(=N)N)C(=O)N[C@H](C(=O)NCC(=O)N[C@@H](CC(=O)O)C(=O)N[C@@H](CCC(=O)O)C(=O)N[C@@H](Cc1ccccc1)C(=O)O)[C@@H](C)CC (stereo not given in full) ({C20 diacid}-IAQELR[ξR]IGDEF-OH)', 'Fasting blood glucose level', 19.2),
  ('CCCCCCCCCCCCCC(=O)N[C@H](C(=O)N[C@@H](C)C(=O)N[C@@H](CCC(N)=O)C(=O)N[C@@H](CCC(=O)O)C(=O)N[C@@H](CC(C)C)C(=O)N[C@@H](CCCNC(=N)N)C(=O)NC(CCCNC(=N)N)C(=O)N[C@H](C(=O)NCC(=O)N[C@@H](CC(=O)O)C(=O)N[C@@H](CCC(=O)O)C(=O)N[C@@H](Cc1ccccc1)C(=O)O)[C@@H](C)CC)[C@@H](C)CC (stereo not given in full) (Myristoyl-IAQELR[ξR]IGDEF-OH)', 'Fasting blood glucose level', 15.6),
  ('CC[C@H](C)[C@H](NC(=O)CCCCCCCCCCCCCCCCC(=O)O)C(=O)N[C@@H](C)C(=O)N[C@@H](CCC(N)=O)C(=O)N[C@@H](CCC(=O)O)C(=O)N[C@@H](CC(C)C)C(=O)N[C@@H](CCCNC(=N)N)C(=O)NC(CCCNC(=N)N)C(=O)N[C@H](C(=O)NCC(=O)N[C@@H](CC(=O)O)C(=O)N[C@@H](CCC(=O)O)C(=O)N[C@@H](Cc1ccccc1)C(=O)O)[C@@H](C)CC (stereo not given in full) ({C18 diacid}-IAQELR[ξR]IGDEF-OH)', 'Fasting blood glucose level', 18.4),
  ('CC[C@H](C)[C@H](NC(=O)CCCCCCCCCCCCCCCCCCCCC(=O)O)C(=O)N[C@@H](C)C(=O)N[C@@H](CCC(N)=O)C(=O)N[C@@H](CCC(=O)O)C(=O)N[C@@H](CC(C)C)C(=O)N[C@@H](CCCNC(=N)N)C(=O)NC(CCCNC(=N)N)C(=O)N[C@H](C(=O)NCC(=O)N[C@@H](CC(=O)O)C(=O)N[C@@H](CCC(=O)O)C(=O)N[C@@H](Cc1ccccc1)C(=O)O)[C@@H](C)CC (stereo not given in full) ({C22 diacid}-IAQELR[ξR]IGDEF-OH)', 'Fasting blood glucose level', 17),
  ('CCCCCCCCCCCCCCCCCC(=O)N[C@H](C(=O)N[C@@H](C)C(=O)N[C@@H](CCC(N)=O)C(=O)N[C@@H](CCC(=O)O)C(=O)N[C@@H](CC(C)C)C(=O)N[C@@H](CCCNC(=N)N)C(=O)NC(CCCNC(=N)N)C(=O)N[C@H](C(=O)NCC(=O)N[C@@H](CC(=O)O)C(=O)N[C@@H](CCC(=O)O)C(=O)N[C@@H](Cc1ccccc1)C(=O)O)[C@@H](C)CC)[C@@H](C)CC (stereo not given in full) (Stearoyl-IAQELR[ξR]IGDEF-OH)', 'Fasting blood glucose level', 19.8);
